The measured values listed here are drawn from patent US20070249620A1.

What melting point was measured for each of the following?

Noted for `CC(C)(C)OC(=O)N1CCN(c2ccc(NC(=O)Nc3ccccc3F)cc2)CC1` : its melting point reads 164 to 166 °C

Recorded result, `CCCCOc1ccc(NC(=O)Nc2ccc(N3CCN(C(=O)Nc4c(C)cccc4Cl)CC3)cc2)cc1` , melting point: 218 to 219 °C

Value of melting point reported for the molecule `CC(C)(C)OC(=O)N1CCN(c2ccc(NC(=O)Nc3ccccc3Oc3ccccc3)cc2)CC1` is 186 to 187 °C

melting point measured on `COc1ccc(C)cc1NC(=O)Nc1ccc(N2CCN(C(=O)Oc3ccccc3)CC2)cc1` = 179 °C

The value of melting point measured for the molecule COc1ccc(C)cc1NC(=O)Nc1ccc(N2CCN(C(=O)C(O)c3ncccc3C)CC2)cc1 (stereo not shown) turned out to be 199 to 200 °C

Form field melting point, entry `CCOc1ccccc1NC(=O)Nc1ccc(N2CCN(C(=O)Nc3ccc(C)cc3Cl)CC2)cc1` : 179 to 181 °C

For reference, reported melting point for `COc1ccc(C)cc1NC(=O)Nc1ccc(C2=CCN(C(=O)Nc3cc(OCCO)ccc3Cl)CC2)cc1` stands at 139 to 142 °C

molecule `COc1ccc(F)cc1NC(=O)Nc1ccc(N2CCN(C(=O)Nc3ccc(OCCO)cc3C(F)(F)F)CC2)cc1` , melting point observed: 140 to 141 °C

Record summary for `CCCCOc1ccc(NC(=O)Nc2ccc(N3CCN(C(=O)OC(C)(C)C)CC3)cc2)cc1` : reported melting point = 185 to 188 °C

Entry `CCOc1cccc(NC(=O)Nc2ccc(N3CCN(C(=O)Nc4cc(OCCO)ccc4Cl)CC3)cc2)c1` — recorded melting point = 196 to 197 °C

// melting point value for `Cc1cccc(Cl)c1NC(=O)N1CCN(c2ccc(NC(=O)Nc3ccccc3F)cc2)CC1` : 232 to 234 °C

molecule `CCc1cccc(NC(=O)Nc2ccc(N3CCN(C(=O)OC(C)(C)C)CC3)cc2)c1` , melting point observed: 160 °C

# molecule `CCc1ccc(NC(=O)Nc2ccc(N3CCN(C(=O)OC(C)(C)C)CC3)cc2)cc1` ; its melting point = 204 to 205 °C

Lookup result for COc1ccc(C)cc1NC(=O)Nc1ccc(N2CCN(C(=O)Nc3ccc(OCC(O)CO)cc3Cl)CC2)cc1 (stereo not shown) ; measured melting point: 134 to 136 °C

Recorded melting point (molecule CCC(C)c1ccccc1NC(=O)Nc1ccc(N2CCN(C(=O)Nc3c(C)cccc3Cl)CC2)cc1 (stereo not shown) ): 232 to 234 °C

Entry `CC(C)(C)OC(=O)N1CCN(c2ccc(NC(=O)Nc3ccccc3OC(F)F)cc2)CC1` — recorded melting point = 154 to 155 °C
